substrate: NC(=O)N[C@@H](O)C(=O)O; experiment: purified protein; assay type: biochemical, Escherichia coli; settings: 3 mM NAD+ (saturating), 30 °C, value in parentheses is standard error, His-tag kept
PARAMETER MEASURED: kcat

q: Given the entry (S)-ureidoglycolate dehydrogenase (AllD) (Escherichia coli K-12; S140A) (protein, full length, modified pET28b with N-terminal His-tag and TEV site, expressed in E. coli BL21(DE3); tag cut for crystals, kept on mutant enzymes for kinetics; homodimer) MKISRETLHQLIENKLCQAGLKREHAATVAEVLVYADARGIHSHGAVRVEYYAERISKGGTNREPEFRLEETGPCSAILHADNAAGQVAAKMGMEHAIKTAQQNGVAVVGISRMGHSGAISYFVQQAARAGFIGISMCQADPMVVPFGGAEIYYGTNPLAFAAPGEGDEILTFDMATTVQAWGKVLDARSRNMSIPDTWAVDKNGVPTTDPFAVHALLPAAGPKGYGLMMMIDVLSGVLLGLPFGRQVSSMYDDLHAGRNLGQLHIVINPNFFSSSELFRQHLSQTMRELNAITPAPGFNQVYYPGQDQDIKQRKAAVEGIEIVDDIYQYLISDALYNTSYETKNPFAQ , report its measured kcat.
a: 1.29 s⁻¹
